target: tetanus neurotoxin (TeNT), authentic tetanus holotoxin (Clostridium tetani, UniProt P04958 2-1315); assay: ELISA, directly coated TeNT, unlabelled binder
Sequence (P04958 2-457 limits assumed, chain 1 of 2): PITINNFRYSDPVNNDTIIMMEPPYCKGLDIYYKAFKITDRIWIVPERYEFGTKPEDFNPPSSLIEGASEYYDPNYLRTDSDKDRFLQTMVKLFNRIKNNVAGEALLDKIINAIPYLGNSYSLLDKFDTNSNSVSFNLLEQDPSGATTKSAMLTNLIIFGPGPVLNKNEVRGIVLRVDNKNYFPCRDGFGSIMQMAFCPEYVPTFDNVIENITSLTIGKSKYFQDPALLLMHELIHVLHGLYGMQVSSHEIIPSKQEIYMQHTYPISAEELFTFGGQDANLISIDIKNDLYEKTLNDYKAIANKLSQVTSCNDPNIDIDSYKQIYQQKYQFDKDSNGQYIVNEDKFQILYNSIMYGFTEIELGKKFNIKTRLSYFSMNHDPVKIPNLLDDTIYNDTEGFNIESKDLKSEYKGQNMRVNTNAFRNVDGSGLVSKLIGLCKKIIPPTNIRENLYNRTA
Sequence (P04958 458-1315 limits assumed, chain 2 of 2): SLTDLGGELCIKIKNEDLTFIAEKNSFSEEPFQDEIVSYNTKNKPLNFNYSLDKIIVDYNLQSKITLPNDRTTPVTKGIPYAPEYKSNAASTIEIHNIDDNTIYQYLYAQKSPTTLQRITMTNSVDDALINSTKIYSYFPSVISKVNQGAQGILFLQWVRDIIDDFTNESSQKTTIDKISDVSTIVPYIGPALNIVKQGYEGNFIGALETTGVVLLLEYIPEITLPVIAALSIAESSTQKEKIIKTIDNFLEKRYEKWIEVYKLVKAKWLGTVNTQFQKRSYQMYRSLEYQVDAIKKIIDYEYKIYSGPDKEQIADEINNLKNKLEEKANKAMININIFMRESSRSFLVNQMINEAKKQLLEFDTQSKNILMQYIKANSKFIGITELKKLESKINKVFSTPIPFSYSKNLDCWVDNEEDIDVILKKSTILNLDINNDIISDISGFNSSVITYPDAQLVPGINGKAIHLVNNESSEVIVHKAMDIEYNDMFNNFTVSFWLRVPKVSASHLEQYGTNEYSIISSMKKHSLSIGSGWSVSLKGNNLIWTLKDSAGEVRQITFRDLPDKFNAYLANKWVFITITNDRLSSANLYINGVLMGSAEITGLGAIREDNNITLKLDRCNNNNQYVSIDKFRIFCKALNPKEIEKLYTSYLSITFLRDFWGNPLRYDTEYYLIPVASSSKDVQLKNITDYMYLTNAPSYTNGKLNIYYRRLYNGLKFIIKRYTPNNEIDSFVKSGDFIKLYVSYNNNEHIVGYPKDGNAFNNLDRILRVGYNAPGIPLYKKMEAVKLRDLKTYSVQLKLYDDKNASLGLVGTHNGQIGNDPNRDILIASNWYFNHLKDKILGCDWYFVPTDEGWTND
EC resulting in A450 0.2 listing for selected binders.
Kindly answer with a numeric value in ng/mL, unit omitted.

| Binder | Quantity name | Val |
| --- | --- | --- |
| SVT29L (VHH) VHH: QVQLQESGGGLVQTGGSLTLSCRAYGRAFDNYHFGWFRQAPGKDREFVASISWKGGSTYRANFALGRFTSSVNRGESSVYLHMSGLTPEDTATYYCAAHDGGDWNYHTGMDYWGKGILVTVSS | EC resulting in A450 0.2 | 2.6 |
| SVT15L (VHH) VHH: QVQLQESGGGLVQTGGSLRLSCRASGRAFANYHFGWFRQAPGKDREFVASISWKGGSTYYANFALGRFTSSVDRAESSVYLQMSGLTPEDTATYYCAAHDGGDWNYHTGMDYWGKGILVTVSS | EC resulting in A450 0.2 | 2.8 |
| SVT31L (VHH) VHH: QVQLQESGGGSVQAGGSLTLSCAASEFSYNDYTIAWFRRAAGKGRVEDGEGVASITKSYDRAYDNRIHYADSVKGRFTISRDNAKNTVYLQMTSLNPSDTAVYYCALDITPPGGIGASLTEGFLFDYWGQGTQVTVSS | EC resulting in A450 0.2 | 2.4 |
| SVT16L (VHH) VHH: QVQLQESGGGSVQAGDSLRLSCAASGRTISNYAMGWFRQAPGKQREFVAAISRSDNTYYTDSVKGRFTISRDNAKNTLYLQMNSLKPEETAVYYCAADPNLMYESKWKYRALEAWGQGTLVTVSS | EC resulting in A450 0.2 | 1.1 |
| SVT08L (VHH) VHH: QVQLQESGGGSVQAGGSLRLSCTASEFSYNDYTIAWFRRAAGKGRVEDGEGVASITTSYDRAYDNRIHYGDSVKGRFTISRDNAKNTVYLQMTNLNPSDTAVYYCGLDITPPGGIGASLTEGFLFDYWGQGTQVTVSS | EC resulting in A450 0.2 | 2.2 |

So what's the measured EC resulting in A450 0.2 for this one? SVT06L (VHH) VHH: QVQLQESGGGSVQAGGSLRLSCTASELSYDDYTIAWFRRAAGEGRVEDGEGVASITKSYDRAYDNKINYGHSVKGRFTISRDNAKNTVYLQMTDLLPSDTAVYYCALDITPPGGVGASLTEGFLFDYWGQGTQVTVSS
1.7

So what's the measured EC resulting in A450 0.2 for this one? SVT22L (VHH) VHH: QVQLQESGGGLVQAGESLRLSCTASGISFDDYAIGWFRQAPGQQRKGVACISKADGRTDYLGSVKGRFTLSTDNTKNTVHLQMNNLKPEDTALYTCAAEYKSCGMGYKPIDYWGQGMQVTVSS
2

So what's the measured EC resulting in A450 0.2 for this one? SVT05L (VHH) VHH: QVQLQESGGGLVQPGGSLRLSCSASGFSFTDDYGIGWFRSGPGKGREAVAPIADREAVAAIALSDGNTYYSASAKGRFTISRDNAKSTAYLQMNNLKPEDTATYYCAADFWGYGMSWPMATLWEYWGQGIQVTVSS
0.51
